SYSTEM_TESTED: CLR/RAMP2 receptor (UniProt Q16602 23-461; O60895 43-175, limits assumed)
Sequence (Q16602 23-461 limits assumed, chain 1 of 2): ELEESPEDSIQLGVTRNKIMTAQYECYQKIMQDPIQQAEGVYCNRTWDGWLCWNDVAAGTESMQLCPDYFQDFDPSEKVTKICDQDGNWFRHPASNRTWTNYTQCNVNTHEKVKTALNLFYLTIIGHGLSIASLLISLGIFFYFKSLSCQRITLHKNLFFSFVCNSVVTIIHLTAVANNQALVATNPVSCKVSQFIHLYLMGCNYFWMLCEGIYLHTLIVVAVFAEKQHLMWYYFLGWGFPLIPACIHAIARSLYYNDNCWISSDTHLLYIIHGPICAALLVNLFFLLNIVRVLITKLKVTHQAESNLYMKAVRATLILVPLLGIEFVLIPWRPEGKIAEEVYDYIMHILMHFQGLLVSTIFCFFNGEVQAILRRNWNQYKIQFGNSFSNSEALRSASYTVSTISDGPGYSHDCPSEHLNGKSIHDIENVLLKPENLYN
Sequence (O60895 43-175 limits assumed, chain 2 of 2): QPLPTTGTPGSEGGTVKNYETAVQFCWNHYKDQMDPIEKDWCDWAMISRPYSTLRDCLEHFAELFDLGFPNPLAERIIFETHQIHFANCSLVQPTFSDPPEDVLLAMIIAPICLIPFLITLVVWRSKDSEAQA
TEST: cell-based or functional assay
Non-standard residues stand in square brackets, D forms with d. No end group written: not given here. *: point of attachment. Palmitoyl = CCCCCCCCCCCCCCCC(=O)*; AEEEA = NCCOCCOCCOCC(=O)O
METRIC_NAME: EC50 (nM), CLR/RAMP2 arrestin assay

>>> numeric_result("miniPEG-TK(Palmitoyl)KTLRTGCRFGTCTVQKLAHQIYQFTDKDKDNVAPVDPSSPHSY-NH2 (cysteine pairing not given here) [SEQ ID NO: 42]")
0.2
>>> numeric_result("[AEEEA]K(Palmitoyl)GCRFGTCTVQKLAHQIYQFTDKDKDSAPVDPSSPHSY-NH2 (ends and bridges not checked) [SEQ ID NO: 46]")
0.5
>>> numeric_result("Palmitoyl-KTKKTLRTGCRFGTCTVQKLAHQIYQFTDKDKDNVAPVDPSSPHSY-NH2 (not fully specified; printed as Pal-KTKKTLRTGCRFGTCTVQKLAHQIYQFTDKDKDNVAPVDPSSPHSY-NH2; ends and bridges not checked) [SEQ ID NO: 40]")
1
>>> numeric_result("Palmitoyl-KGCRFGTCTVQKLAHQIYQFTPAGRQDSAPVDPSSPHSY-NH2 (ends and bridges not checked) [SEQ ID NO: 31]")
0.9
>>> numeric_result("Palmitoyl-KTKKTLRTGCRFGTCTVQKLAHQIYQFTDKDKDNSAPVDPSSPHSY-NH2 (not fully specified; printed as Pal-KTKKTLRTGCRFGTCTVQKLAHQIYQFTDKDKDNSAPVDPSSPHSY-NH2; ends and bridges not checked) [SEQ ID NO: 38]")
0.7
>>> numeric_result("KGCRFGTCTVQKLAHQIYQFTDKDKDNVAPRSKISPQGY (N-terminal miniPEG; palmitoyl on Lys 1 side chain, K(PAL); C-terminal amide) [SEQ ID NO: 69]")
0.6
>>> numeric_result("Ac-TK(Palmitoyl)KTLRTGCRFGTCTVQKLAHQIYQFTDKDKDNVAPVDPSSPHSY-NH2 (ends and bridges not checked) [SEQ ID NO: 41]")
0.9
>>> numeric_result("[AEEEA]K(Palmitoyl)GCRFGTCTVQKLAHQIYQFTDKDKQDSAPVDPSSPHSY-NH2 (ends and bridges not checked) [SEQ ID NO: 51]")
0.3
>>> numeric_result("Palmitoyl-KGCRFGTCTVQKLAHQIYQFTDKDKDNVAPVDPSSPHSY-NH2 (ends and bridges not checked) [SEQ ID NO: 34]")
0.7
